Each entry below lists one item and its recorded activity change, negative = inhibition value.
- target.under.test: D(1A) dopamine receptor (Homo sapiens) (UniProt P21728)
- Sequence (P21728 whole entry, looked up): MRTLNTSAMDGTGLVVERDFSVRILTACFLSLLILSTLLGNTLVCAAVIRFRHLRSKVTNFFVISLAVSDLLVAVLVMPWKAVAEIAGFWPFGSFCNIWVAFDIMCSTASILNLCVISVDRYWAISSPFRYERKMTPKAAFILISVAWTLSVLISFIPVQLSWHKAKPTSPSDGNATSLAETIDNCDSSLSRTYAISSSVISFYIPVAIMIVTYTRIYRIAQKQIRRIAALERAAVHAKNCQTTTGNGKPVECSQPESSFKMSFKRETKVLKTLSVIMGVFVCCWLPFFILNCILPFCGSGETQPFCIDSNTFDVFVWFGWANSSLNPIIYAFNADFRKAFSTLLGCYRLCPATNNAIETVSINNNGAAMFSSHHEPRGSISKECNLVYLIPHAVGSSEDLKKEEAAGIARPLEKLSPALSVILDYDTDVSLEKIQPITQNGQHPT
- protocol.details: Antagonist of Human D 1 Dopamine Receptor: qHTS; also: % is scaled to controls: 0 for no effect and ±100 for the full control effect
- condition.context: HEK293 TREx D1 cells, calcium flux, dopamine EC80; at 10 µM; active compounds read low
Among all 360,000 compounds or so, about 11,000 (3.1%) were called active. For the sample, actives were picked, then their nearest neighbours and some compounds at random.
Provide only the numeric value, understood in %.

Solved entries (count: 8):
O=C(Nc1ccccc1Br)c1cc(CN2CCCC2)on1 | -3.7
O=C(CN1CCc2ccccc2C1)Nc1cccc(S(=O)(=O)N2CCOCC2)c1 | 27.4
Cc1ccc(NC(=O)CN2CCc3ccccc3C2)cc1C | -59.1
O=C(CCc1nc(CN2CCN(S(=O)(=O)c3ccc(Br)cc3)CC2)no1)N1CCCCC1 | -0.355
CC(=O)N1CCCc2cc(S(=O)(=O)N3CCC(C(=O)NCc4ccc(F)cc4)CC3)ccc21 | -2.54
CCOC(=O)CN1C(C(=O)c2ccccc2)=C(OC(=O)C(C)(C)C)c2ccccc2S1(=O)=O | -13.9
CCc1nnc(SCc2nc(-c3cccc(C)c3)oc2C)c2cc3sc(C)cc3n12 | 8.82
O=C(COc1ccc(Cl)cc1)Nc1ccccc1OCc1cc(=O)n2ccccc2n1 | 0.395

Notebook: `COc1ccccc1N1CCN(c2ccc(=O)n(CC(=O)NCc3ccc(OC(C)C)cc3)n2)CC1` , activity change, negative = inhibition read as 23.5

Notebook: `O=C(CN1CCc2cc3c(cc2C1)OCCCO3)Nc1ccccc1` , activity change, negative = inhibition read as -19.4

----------
- target.under.test: D(1A) dopamine receptor (Homo sapiens)
- protocol.details: Antagonist of Human D 1 Dopamine Receptor: qHTS; also: % is scaled to controls: 0 for no effect and ±100 for the full control effect
- condition.context: HEK293 TREx D1 cells, calcium flux, dopamine EC80; at 10 µM; active compounds read low
Screen size: about 360,000 compounds; about 11,000 (3.1%) were called active. The entries come from a sample that favours actives as a whole.
value.kind: activity change, negative = inhibition (%)
Provide only the numeric value, understood in %.

Solved entries (count: 3):
CCOC(=O)c1cc(-c2ccccc2)n(-c2cccc(C(=O)Nc3cc(OC)cc(OC)c3)c2)c1C | -24.9
COc1cccc(N2CCN(C(=O)CCCCCn3c(=O)[nH]c4ccccc4c3=O)CC2)c1 | -11.8
O=C(Nc1ccc2nc(SCCOc3ccccc3)sc2c1)c1ccco1 | -3.21

Turning now to a further record.
Notebook: `CCCCN(CCCNC(=O)c1cc(Nc2ccccc2OC)nc2ccccc12)c1ccccc1` , activity change, negative = inhibition read as -1.02

----------
- target.under.test: D(1A) dopamine receptor (Homo sapiens) (UniProt P21728)
- protocol.details: Antagonist of Human D 1 Dopamine Receptor: qHTS; also: % is scaled to controls: 0 for no effect and ±100 for the full control effect
- condition.context: HEK293 TREx D1 cells, calcium flux, dopamine EC80; at 10 µM; active compounds read low
About 11,000 (3.1%) of roughly 360,000 compounds were called active. The full list was thinned out, with actives kept by preference.
value.kind: activity change, negative = inhibition (%)
Provide only the numeric value, understood in %.

Notebook: `Cc1ccc(NC(=O)CNCc2ccccn2)cc1S(=O)(=O)N(C)C` , activity change, negative = inhibition read as -15

Notebook: `COC(=O)c1scc(-c2ccc(C)cc2)c1S(=O)(=O)Nc1cc(Cl)c(OC)cc1OC` , activity change, negative = inhibition read as 10.2

Notebook: Oc1ccc(Cl)cc1C1C=C(c2ccc3c(c2)OCO3)NC(c2ccc(F)c(Br)c2)N1 (stereo not given) , activity change, negative = inhibition read as -22.1

Notebook: `O=S(=O)(NCC1CC1)c1ccc(F)c(Cl)c1` , activity change, negative = inhibition read as -3.94

Notebook: `CCOc1cc(C(=S)N2CCOCC2)ccc1O` , activity change, negative = inhibition read as -0.874
